- Subject Of Test: specific ANP receptor sites on BASM or BAE cells (Bos taurus)
- Construct: specific receptor sites on BASM or BAE cells; endogenous in cells; host or cells: cultured BASM and BAE cells
- Sequence (P10730 42-537): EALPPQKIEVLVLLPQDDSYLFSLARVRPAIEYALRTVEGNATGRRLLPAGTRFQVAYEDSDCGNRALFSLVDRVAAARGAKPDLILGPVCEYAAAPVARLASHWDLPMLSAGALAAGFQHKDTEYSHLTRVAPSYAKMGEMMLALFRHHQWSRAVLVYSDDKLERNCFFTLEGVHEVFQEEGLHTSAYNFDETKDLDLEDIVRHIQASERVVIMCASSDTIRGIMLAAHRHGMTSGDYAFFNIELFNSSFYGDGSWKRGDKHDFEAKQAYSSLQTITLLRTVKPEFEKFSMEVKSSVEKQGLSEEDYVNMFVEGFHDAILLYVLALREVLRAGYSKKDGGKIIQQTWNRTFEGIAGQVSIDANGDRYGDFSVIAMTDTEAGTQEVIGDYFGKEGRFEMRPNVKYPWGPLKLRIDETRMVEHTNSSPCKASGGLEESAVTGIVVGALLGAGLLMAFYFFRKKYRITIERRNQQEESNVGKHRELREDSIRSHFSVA
- Experiment Summary: Competitive displacement receptor binding of (125I)-rANP(126-150) on cultured cells
- Design: species or system bovine
- Setup Conditions: concentration of unlabeled peptide displacing 50% of maximal binding of 0.5 nM (125I)-rANP(126-150); BASM or BAE cells
*1 amine or outer side, *2 acyl side, *3 side chain or, on linkers, in order; H or OH if unused. Where a SMILES comes first, the peptide text is derived from it. [ ]: non-standard residue; d: D form. The star is where a group is joined. Acetyl(2-naphthyl) = O=C(Cc1ccc2ccccc2c1)*; X1 = O=C(Cc1ccc(N[*:1])cc1)[*:2]; tBuAla = CC(C)(C)C[C@H](N)C(=O)O; Met(O) = CS(=O)CC[C@H](N)C(=O)O; Ava = NCCCCC(=O)O; BrAc = O=C(CBr)*
List of Ki(app) values.

Below: 5 molecules and their reported Ki(app).
molecule="CC[C@H](C)[C@H](NC(=O)[C@H](CCCNC(=N)N)NC(=O)[C@H](CC(=O)O)NC(=O)[C@H](CC(C)(C)C)NC(=O)[C@H](CCCNC(=N)N)NC(=O)CNC(=O)CNC(=O)Cc1ccc2ccccc2c1)C(N)=O [AP590, (2-NA)--G--G--R--tBuA--D--R--I--NH2] ({Acetyl(2-naphthyl)}-GGR[tBuAla]DRI-NH2)" assay_endpoint=Ki(app) measured="12.0 nM"
molecule=CC[C@H](C)CNC(=O)[C@H](CCCNC(=N)N)NC(=O)[C@H](CC(=O)O)NC(=O)[C@@H](NC(=O)[C@H](CCCNC(=N)N)NCC1CCN(C(=O)COc2ccc3ccccc3c2)CC1)[C@@H](C)CC assay_endpoint=Ki(app) measured="32.0 nM"
molecule=CC[C@H](C)[C@H](NC(=O)[C@H](CCCNC(=N)N)NC(=O)[C@H](CC(=O)O)NC(=O)[C@@H](NC[C@H](CCCCN)NC(=O)Cc1ccc(NC(=O)c2ccc3ccccc3c2)cc1)[C@@H](C)CC)C(N)=O assay_endpoint=Ki(app) measured="14.7 nM"
molecule="CC[C@H](C)[C@H](NC(=O)[C@H](CCCNC(=N)N)NC(=O)[C@H](CC(=O)O)NC(=O)[C@@H](NC(=O)[C@H](CCCNC(=N)N)NC(=O)Cc1ccc(NC(=O)[C@H](Cc2ccccc2)NC(=O)CBr)cc1)[C@@H](C)CC)C(N)=O [AP819] (BrAc-F[X1]RIDRI-NH2)" assay_endpoint=Ki(app) measured="3.8 nM"
molecule="CC[C@H](C)[C@H](NC(=O)[C@H](CCCNC(=N)N)NC(=O)[C@H](CC(=O)O)NC(=O)[C@@H](NC(=O)[C@H](CCCNC(=N)N)NC(=O)CNC(=O)CNC(=O)Cc1ccc2ccccc2c1)[C@@H](C)CC)C(=O)NCCCCC(N)=O [AP526] ({Acetyl(2-naphthyl)}-GGRIDRI[Ava]-NH2)" assay_endpoint=Ki(app) measured="50.5 nM"

Next molecule, Ki(app) to be filled in.
Consider the molecule shown here: CC[C@H](C)[C@H](NC(=O)[C@H](CCCNC(=N)N)NC(=O)[C@H](CC(=O)O)NC(=O)[C@H](CC[S+](C)[O-])NC(=O)[C@H](CCCNC(=N)N)NC(=O)CNC(=O)CNC(=O)Cc1ccc2ccccc2c1)C(N)=O (stereo partly drawn) [AP515, (2-NA)--G--G--R--MSO--D--R--I--NH2] ({Acetyl(2-naphthyl)}-GGR[Met(O)]DRI-NH2) What is its recorded Ki(app)?
> 400 nM

Numbers sourced from patent US5047397A.
